Hello, the source for this data is PubChem BioAssay (NCI), in case you need it.

system: HT29 colon; assay: NCI tumour cell line growth inhibition, 48 h
test_readout: TGI

Field: example entries. Status: answers known.
O=C1NC(N/N=C/c2ccccc2)=N/C1=C\c1cccs1 : > 55.3 µM
O=C(CC/C(CC(=O)c1ccc(Cl)cc1)=N/O)Nc1ccc(Cl)c(Cl)c1 : > 100 µM
CC(C)CCNC(=O)c1ccc(CNC(=O)/C=C/c2csc(-c3ccccc3)n2)cc1 : > 100 µM
O=C1C2C(C(=O)N1c1ccccc1)C1(c3ccccc3)OC2(c2ccccc2)c2ccccc21 (stereo unspecified) : > 100 µM
Cc1nc2c(n1CCC(C)C)C(=O)c1ccccc1C2=O : > 100 µM

Moving on to another molecule below.
Asked: Under HT29 colon: TGI value of N#CC(C#N)=Cc1ccc(C=C2SC3=C(SCCS3)S2)s1 ?
Given back: > 100 µM
